For each entry below, report its pIC50 value.
# study.target: 3-oxo-5-alpha-steroid 4-dehydrogenase 2 (Homo sapiens, UniProt P31213)
# Sequence (P31213 whole entry): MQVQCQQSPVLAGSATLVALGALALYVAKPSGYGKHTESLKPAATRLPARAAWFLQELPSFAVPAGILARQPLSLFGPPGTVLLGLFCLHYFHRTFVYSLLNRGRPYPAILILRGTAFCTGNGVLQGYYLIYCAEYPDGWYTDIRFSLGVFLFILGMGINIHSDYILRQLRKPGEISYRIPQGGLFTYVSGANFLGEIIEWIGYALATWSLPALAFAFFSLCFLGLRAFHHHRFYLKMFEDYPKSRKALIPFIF
# run.description: Inhibitory concentration against human steroid 5-alpha-reductase 2 receptor expressed in CHO 1829 cells
# Format: cell-based
Worth noting: pIC50 values are minus log10 of concentrations stated in mol/L.

Exercise: Given `CC(=O)Nc1ccc(OC(=O)c2ccc3c(c2)CCC2=C(C)C(=O)CCN23)cc1` , report its pIC50 on 3-oxo-5-alpha-steroid 4-dehydrogenase 2 (Homo sapiens, UniProt P31213).
Solution: 6.59

Exercise: Given `CC1=C2CCc3cc(C(=O)Oc4cccc(C(F)(F)F)c4)ccc3N2CCC1=O` , report its pIC50 on 3-oxo-5-alpha-steroid 4-dehydrogenase 2 (Homo sapiens, UniProt P31213).
Solution: 6.00

Exercise: Given `CC1=C2CCc3cc(C(=O)Oc4ccccc4)ccc3N2CCC1=O` , report its pIC50 on 3-oxo-5-alpha-steroid 4-dehydrogenase 2 (Homo sapiens, UniProt P31213).
Solution: 6.53

Exercise: Given `CC1=C2CCc3cc(C(=O)Oc4ccccc4C(F)(F)F)ccc3N2CCC1=O` , report its pIC50 on 3-oxo-5-alpha-steroid 4-dehydrogenase 2 (Homo sapiens, UniProt P31213).
Solution: 6.43

Exercise: Given `CC1=C2CCc3cc(C(=O)Oc4ccc(C)cc4)ccc3N2CCC1=O` , report its pIC50 on 3-oxo-5-alpha-steroid 4-dehydrogenase 2 (Homo sapiens, UniProt P31213).
Solution: 6.26

Exercise: Given `CCN(CC)C(=O)c1ccc(OC(=O)c2ccc3c(c2)CCC2=C(C)C(=O)CCN23)cc1` , report its pIC50 on 3-oxo-5-alpha-steroid 4-dehydrogenase 2 (Homo sapiens, UniProt P31213).
Solution: 6.43

Exercise: Given `CC1=C2CCc3cc(C(=O)OCc4ccccc4)ccc3N2CCC1=O` , report its pIC50 on 3-oxo-5-alpha-steroid 4-dehydrogenase 2 (Homo sapiens, UniProt P31213).
Solution: 5.02

Exercise: Given `CCOc1ccc(OC(=O)c2ccc3c(c2)CCC2=C(C)C(=O)CCN23)cc1` , report its pIC50 on 3-oxo-5-alpha-steroid 4-dehydrogenase 2 (Homo sapiens, UniProt P31213).
Solution: 5.48

Exercise: Given `CC1=C2CCc3cc(C(=O)Oc4ccc(N)cc4)ccc3N2CCC1=O` , report its pIC50 on 3-oxo-5-alpha-steroid 4-dehydrogenase 2 (Homo sapiens, UniProt P31213).
Solution: 6.10

Exercise: Given `CC1=C2CCc3cc(C(=O)Oc4cccc(F)c4)ccc3N2CCC1=O` , report its pIC50 on 3-oxo-5-alpha-steroid 4-dehydrogenase 2 (Homo sapiens, UniProt P31213).
Solution: 6.87

Exercise: Given `CC1=C2CCc3cc(C(=O)Oc4ccccc4F)ccc3N2CCC1=O` , report its pIC50 on 3-oxo-5-alpha-steroid 4-dehydrogenase 2 (Homo sapiens, UniProt P31213).
Solution: 6.78

Exercise: Given `CCCNC(=O)c1ccc(OC(=O)c2ccc3c(c2)CCC2=C(C)C(=O)CCN23)cc1` , report its pIC50 on 3-oxo-5-alpha-steroid 4-dehydrogenase 2 (Homo sapiens, UniProt P31213).
Solution: 6.18

Exercise: Given `COC(=O)c1ccc2c(c1)CCC1=C(C)C(=O)CCN12` , report its pIC50 on 3-oxo-5-alpha-steroid 4-dehydrogenase 2 (Homo sapiens, UniProt P31213).
Solution: 5.68

Exercise: Given `CCOC(=O)c1ccc2c(c1)CCC1=C(C)C(=O)CCN12` , report its pIC50 on 3-oxo-5-alpha-steroid 4-dehydrogenase 2 (Homo sapiens, UniProt P31213).
Solution: 5.32

Exercise: Given `CC1=C2CCc3cc(C(=O)Oc4ccc(C(N)=O)cc4)ccc3N2CCC1=O` , report its pIC50 on 3-oxo-5-alpha-steroid 4-dehydrogenase 2 (Homo sapiens, UniProt P31213).
Solution: 6.51

Exercise: Given `CC1=C2CCc3cc(C(=O)Oc4ccc(F)cc4)ccc3N2CCC1=O` , report its pIC50 on 3-oxo-5-alpha-steroid 4-dehydrogenase 2 (Homo sapiens, UniProt P31213).
Solution: 6.92

Exercise: Given `COC(=O)c1cccc(OC(=O)c2ccc3c(c2)CCC2=C(C)C(=O)CCN23)c1` , report its pIC50 on 3-oxo-5-alpha-steroid 4-dehydrogenase 2 (Homo sapiens, UniProt P31213).
Solution: 6.33

Exercise: Given `COc1ccc(OC(=O)c2ccc3c(c2)CCC2=C(C)C(=O)CCN23)cc1` , report its pIC50 on 3-oxo-5-alpha-steroid 4-dehydrogenase 2 (Homo sapiens, UniProt P31213).
Solution: 5.92

Exercise: Given `CC1=C2CCc3cc(C(=O)Oc4ccc(C(F)(F)F)cc4)ccc3N2CCC1=O` , report its pIC50 on 3-oxo-5-alpha-steroid 4-dehydrogenase 2 (Homo sapiens, UniProt P31213).
Solution: 5.92

Exercise: Given `COC(=O)c1ccc(OC(=O)c2ccc3c(c2)CCC2=C(C)C(=O)CCN23)cc1` , report its pIC50 on 3-oxo-5-alpha-steroid 4-dehydrogenase 2 (Homo sapiens, UniProt P31213).
Solution: 6.23
